ASSAY_SYSTEM: S. aureus GyrB (Staphylococcus aureus)
Construct: purchased Inspiralis Ltd., Norwich, UK
Sequence (P0A0K8 whole entry): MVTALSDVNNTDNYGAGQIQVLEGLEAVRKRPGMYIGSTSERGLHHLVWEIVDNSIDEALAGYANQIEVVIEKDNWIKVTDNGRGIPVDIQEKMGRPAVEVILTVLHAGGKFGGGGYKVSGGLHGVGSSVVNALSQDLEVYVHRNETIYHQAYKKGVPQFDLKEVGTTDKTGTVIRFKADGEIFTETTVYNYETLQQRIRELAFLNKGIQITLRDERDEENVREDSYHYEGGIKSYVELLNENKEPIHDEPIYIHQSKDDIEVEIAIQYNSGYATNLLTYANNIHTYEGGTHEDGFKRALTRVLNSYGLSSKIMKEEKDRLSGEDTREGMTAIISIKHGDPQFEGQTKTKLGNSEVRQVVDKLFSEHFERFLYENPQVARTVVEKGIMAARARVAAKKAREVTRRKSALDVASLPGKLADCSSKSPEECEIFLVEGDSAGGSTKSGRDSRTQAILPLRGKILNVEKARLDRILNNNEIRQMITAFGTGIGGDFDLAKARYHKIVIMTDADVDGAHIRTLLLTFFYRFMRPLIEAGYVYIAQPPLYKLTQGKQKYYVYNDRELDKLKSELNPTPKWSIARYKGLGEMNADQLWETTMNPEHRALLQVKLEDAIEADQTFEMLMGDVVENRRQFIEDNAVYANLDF
Sequence (P20831 whole entry, further chain): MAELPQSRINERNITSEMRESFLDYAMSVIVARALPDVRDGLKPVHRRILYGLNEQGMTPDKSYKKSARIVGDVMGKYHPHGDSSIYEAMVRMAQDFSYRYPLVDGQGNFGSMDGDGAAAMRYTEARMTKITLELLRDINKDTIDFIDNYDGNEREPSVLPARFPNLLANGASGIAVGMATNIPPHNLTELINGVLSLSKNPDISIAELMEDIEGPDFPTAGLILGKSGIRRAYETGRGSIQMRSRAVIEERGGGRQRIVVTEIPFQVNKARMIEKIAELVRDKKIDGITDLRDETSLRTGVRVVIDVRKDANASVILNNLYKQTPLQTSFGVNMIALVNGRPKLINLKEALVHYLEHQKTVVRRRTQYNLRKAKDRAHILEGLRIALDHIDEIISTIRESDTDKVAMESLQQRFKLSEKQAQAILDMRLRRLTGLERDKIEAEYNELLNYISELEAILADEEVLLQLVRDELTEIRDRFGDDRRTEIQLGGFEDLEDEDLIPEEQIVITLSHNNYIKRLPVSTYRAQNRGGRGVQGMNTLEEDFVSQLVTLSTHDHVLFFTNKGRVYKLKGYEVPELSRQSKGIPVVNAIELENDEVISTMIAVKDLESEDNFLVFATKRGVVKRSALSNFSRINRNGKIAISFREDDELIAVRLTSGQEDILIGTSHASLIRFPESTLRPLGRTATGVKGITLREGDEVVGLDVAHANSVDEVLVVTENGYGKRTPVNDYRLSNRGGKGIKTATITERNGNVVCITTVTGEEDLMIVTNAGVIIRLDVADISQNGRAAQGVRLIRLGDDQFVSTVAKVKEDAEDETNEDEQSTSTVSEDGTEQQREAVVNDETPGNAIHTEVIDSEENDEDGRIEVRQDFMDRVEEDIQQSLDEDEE
PROCEDURE_DETAILS: S. aureus GyrB (Gyrase ATPase) inhibition assay, ADP-Glo
Assay type: biochemical
ASSAY_CONDITIONS: read-out: GyrB inhibition rate (%) at 10 μM
Criterion: inhibition at 10 µM meeting or surpassing 10%. Met: 1 (yes). Not met: 0 (no).

Answered cases to consult:
C=CCn1c(=O)c(C(=O)NNC(=O)Cc2ccncc2)c(O)c2ccccc21 | 1 (yes)
CCCCCc1nc2ccccc2c(=O)n1NC(=O)c1c(O)c2ccccc2n(CC)c1=O | 1 (yes)
CCCn1c(=O)c(C(=O)NNC(=O)Cc2ccccc2)c(O)c2ccccc21 | 0 (no)

Ask | Item `CCCCCNC(=O)c1c(O)c2ccccc2n(C)c1=O` with inhibition at 10 µM of 10% or above?
Reply | 1 (yes)

Ask | Then `CCn1c(=O)c(C(=O)NNC(=O)c2ccccc2Br)c(O)c2ccccc21` ?
Reply | 1 (yes)

Ask | Then `CCCCCC(=O)NNC(=O)c1c(O)c2ccccc2n(CCC)c1=O` ?
Reply | 0 (no)
